The following molecules each carry a recorded Ki for D(3) dopamine receptor (Homo sapiens, UniProt P35462).
Answer shape: numeric part, then the unit.

Query :: Report Ki, nothing else, for this molecule: O=C(NC/C=C/CN1CCN(c2ccccc2OCCF)CC1)c1cc2cc(O)ccc2[nH]1
Result :: 4 nM

Query :: Report Ki for COc1ccc2[nH]c(C(=O)NC/C=C/CN3CCN(c4ccccc4OCCF)CC3)cc2c1
Result :: 3.1 nM

Query :: Read off the recorded Ki for COc1ccccc1N1CCN(CCCCNC(=O)c2cc3cc(OCCOCCOCCF)ccc3[nH]2)CC1
Result :: 1.5 nM

----------
RESULT_TYPE: Ki (nM)
Answer format: numeric, nM implied, no suffix.

Query :: Please look at COc1ccc2[nH]cc(C(=O)NC/C=C/CN3CCN(c4ccccc4OCCF)CC3)c2c1 and tell me its recorded Ki on D(3) dopamine receptor (Homo sapiens, UniProt P35462).
Sequence (P35462 whole entry): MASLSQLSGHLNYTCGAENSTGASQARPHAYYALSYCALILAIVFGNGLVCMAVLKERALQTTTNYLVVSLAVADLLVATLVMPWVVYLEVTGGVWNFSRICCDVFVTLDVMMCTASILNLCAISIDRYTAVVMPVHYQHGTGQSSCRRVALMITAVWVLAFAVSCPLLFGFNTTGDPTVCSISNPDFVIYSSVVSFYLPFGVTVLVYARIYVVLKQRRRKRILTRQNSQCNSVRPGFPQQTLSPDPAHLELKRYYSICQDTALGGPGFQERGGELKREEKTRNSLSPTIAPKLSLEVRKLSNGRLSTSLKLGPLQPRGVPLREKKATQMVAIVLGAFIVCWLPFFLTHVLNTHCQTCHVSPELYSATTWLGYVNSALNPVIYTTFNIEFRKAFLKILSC
Result :: 3.2

Query :: # lookup: D(3) dopamine receptor (Homo sapiens, UniProt P35462) Ki, key = COc1ccccc1N1CCN(C/C=C/CNC(=O)c2cc3cc(OCCOCCF)ccc3[nH]2)CC1
Result :: 3.8

Query :: Consider the compound COc1ccc2[nH]c(C(=O)NC/C=C/CN3CCN(c4ccccc4OC)CC3)cc2c1 tested on D(3) dopamine receptor (Homo sapiens, UniProt P35462); state its Ki.
Result :: 4.4

Query :: Check D(3) dopamine receptor (Homo sapiens, UniProt P35462) data and give Ki for COc1ccccc1N1CCN(CCCCNC(=O)c2cc3cc(OCCF)ccc3[nH]2)CC1 .
Result :: 0.43

Query :: Look up and report Ki, with D(3) dopamine receptor (Homo sapiens, UniProt P35462) as system, for COc1ccc2[nH]cc(C(=O)NC/C=C/CN3CCN(c4ccccc4OC)CC3)c2c1
Result :: 3

Entry source: ChEMBL document CHEMBL3132749
